Cited source for all entries: ChEMBL document CHEMBL5329202

# test: Selectivity index, ratio of IC50 for cytotoxicity against human HMEC-1 cells to IC50 for cytotoxicity against human HCT-116 cells
# Type: toxicity, cell-based
# cond: HMEC-1 cells and HCT-116 cells, read-out: Ratio IC50
Kindly supply the reported selectivity ratio values for the records listed here.
Lab note: record just the number, no unit beside it.

*Q* Query (molecule): CC12C(=O)C(C)(C(c3ccccc3)=C1c1ccccc1)C1C(=O)N(CCCCN3CCN(c4ncccn4)CC3)C(=O)C12 (stereo unspecified) ; field requested: selectivity ratio
*A* 6.6

*Q* Query (molecule): CC12C(=O)C(C)(C(c3ccccc3)=C1c1ccccc1)C1C(=O)N(CCCCN3CCN(c4ccccc4Cl)CC3)C(=O)C12 (stereo unspecified) ; field requested: selectivity ratio
*A* 5.77

*Q* Query (molecule): CC12C(=O)C(C)(C(c3ccccc3)=C1c1ccccc1)C1C(=O)N(CCCCN3CCN(c4ccccc4F)CC3)C(=O)C12 (stereo unspecified) ; field requested: selectivity ratio
*A* 3.95

*Q* Query (molecule): CC12C(=O)C(C)(C(c3ccccc3)=C1c1ccccc1)C1C(=O)N(CCCCN3CCN(c4ccccn4)CC3)C(=O)C12 (stereo unspecified) ; field requested: selectivity ratio
*A* 4.37

*Q* Query (molecule): CC12C(=O)C(C)(C(c3ccccc3)=C1c1ccccc1)C1C(=O)N(CCCCN3CCN(c4cccc(Cl)c4)CC3)C(=O)C12 (stereo unspecified) ; field requested: selectivity ratio
*A* 3.54

*Q* Query (molecule): COc1ccccc1N1CCN(CCCCN2C(=O)C3C(C2=O)C2(C)C(=O)C3(C)C(c3ccccc3)=C2c2ccccc2)CC1 (stereo unspecified) ; field requested: selectivity ratio
*A* 3.4

----------
# testedOn: 5-hydroxytryptamine receptor 1A (Rattus norvegicus) (UniProt P19327)
# Sequence (P19327 whole entry): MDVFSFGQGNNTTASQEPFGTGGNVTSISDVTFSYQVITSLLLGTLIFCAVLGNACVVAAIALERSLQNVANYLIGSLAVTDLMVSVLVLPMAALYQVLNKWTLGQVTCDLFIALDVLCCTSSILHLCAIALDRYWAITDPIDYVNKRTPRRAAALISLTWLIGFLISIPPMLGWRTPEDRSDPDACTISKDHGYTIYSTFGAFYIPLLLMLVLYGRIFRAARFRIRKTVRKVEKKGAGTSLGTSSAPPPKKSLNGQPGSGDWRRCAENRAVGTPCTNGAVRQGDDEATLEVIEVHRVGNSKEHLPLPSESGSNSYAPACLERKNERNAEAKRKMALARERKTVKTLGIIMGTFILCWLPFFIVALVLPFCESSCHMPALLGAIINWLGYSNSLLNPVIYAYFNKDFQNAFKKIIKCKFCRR
# test: Agonist activity at Sprague-Dawley rat hippocampal membrane 5-HT1A receptor assessed as stimulation of [35S]GTPgammaS binding by measuring maximal efficacy measured after 90 mins by scintillation counter analysis relative to control
# Assay type: functional, cell membranes
# cond: Hippocampus, filed as agonist
Kindly supply the reported Emax values for the records listed here.
Please give a number only; it is taken to be in %.

*Q* For 5-hydroxytryptamine receptor 1A (Rattus norvegicus) (UniProt P19327), provide Emax of CC12C(=O)C(C)(C(c3ccccc3)=C1c1ccccc1)C1C(=O)N(CCCCN3CCN(c4cccc(Cl)c4)CC3)C(=O)C12 (centres undefined) please.
*A* 162

*Q* For 5-hydroxytryptamine receptor 1A (Rattus norvegicus) (UniProt P19327), provide Emax of CC12C(=O)C(C)(C(c3ccccc3)=C1c1ccccc1)C1C(=O)N(CCCCN3CCN(c4ncccn4)CC3)C(=O)C12 (centres undefined) please.
*A* 134

*Q* For 5-hydroxytryptamine receptor 1A (Rattus norvegicus) (UniProt P19327), provide Emax of CC12C(=O)C(C)(C(c3ccccc3)=C1c1ccccc1)C1C(=O)N(CCCCN3CCN(c4ccccc4F)CC3)C(=O)C12 (centres undefined) please.
*A* 152

*Q* For 5-hydroxytryptamine receptor 1A (Rattus norvegicus) (UniProt P19327), provide Emax of CC12C(=O)C(C)(C(c3ccccc3)=C1c1ccccc1)C1C(=O)N(CCCCN3CCN(c4ccccc4Cl)CC3)C(=O)C12 (centres undefined) please.
*A* 145

----------
# testedOn: 5-hydroxytryptamine receptor 1A (Rattus norvegicus, UniProt P19327)
# Sequence (P19327 whole entry): as above
# test: Agonist activity at Sprague-Dawley rat hippocampal membrane 5-HT1A receptor assessed as stimulation of [35S]GTPgammaS binding measured after 90 mins by scintillation counter analysis
pEC50: −log10 of the molar value.
Given measured pEC50, output yes if it is greater than or equal to 6 and no if not.

*Q* Is reported pEC50 greater than or equal to 6 here: COc1ccccc1N1CCN(CCCCN2C(=O)C3C(C2=O)C2(C)C(=O)C3(C)C(c3ccccc3)=C2c2ccccc2)CC1 (stereo unspecified)
*A* yes

*Q* Is reported pEC50 greater than or equal to 6 here: CC12C(=O)C(C)(C(c3ccccc3)=C1c1ccccc1)C1C(=O)N(CCCCN3CCN(c4cccc(Cl)c4)CC3)C(=O)C12 (stereo unspecified)
*A* yes

*Q* Is reported pEC50 greater than or equal to 6 here: CC12C(=O)C(C)(C(c3ccccc3)=C1c1ccccc1)C1C(=O)N(CCCCN3CCN(c4ccccc4Cl)CC3)C(=O)C12 (stereo unspecified)
*A* yes

*Q* Is reported pEC50 greater than or equal to 6 here: CC12C(=O)C(C)(C(c3ccccc3)=C1c1ccccc1)C1C(=O)N(CCCCN3CCN(c4ccccc4F)CC3)C(=O)C12 (stereo unspecified)
*A* no
